test: acute oral toxicity (LD50), mouse; settings: in vivo, single oral administration, I given as sodium salt
For each entry below, report its LD50 value.
Unit mg/kg implied. Number only.

Given COc1ccc2c(c1)c(CC(=O)OCC(=O)O)c(C)n2C(=O)c1ccc(Cl)cc1 , respond with its LD50.
55.5

Given COc1ccc2c(c1)c(CC(=O)O)c(C)n2C(=O)c1ccc(Cl)cc1 [II, reference compound] , respond with its LD50.
18.4

---

test: acute oral toxicity (LD50), rat; settings: in vivo, single oral administration, I given as sodium salt
measured-quantity: LD50 (mg/kg)
Unit mg/kg implied. Number only.

Given COc1ccc2c(c1)c(CC(=O)O)c(C)n2C(=O)c1ccc(Cl)cc1 [II, reference compound] , respond with its LD50.
24.5

Given COc1ccc2c(c1)c(CC(=O)OCC(=O)O)c(C)n2C(=O)c1ccc(Cl)cc1 [I] , respond with its LD50.
38.9
